Assay: chemical genetic growth profiling, strain panel (AID 1159580);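 also: tested at 20 µM; growth read once vehicle control cultures reached saturation at 30 °C; 1 = growth at the plate median or of vehicle wells; lower values mean less growth of the strain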
Settings: S. cerevisiae deletion strains, growth OD, locus YKR091W, strain srl3, active compounds read low
The campaign covered roughly 5,500 compounds. About 2,000 (36%) were called active. Another 18% or so got no clear call; they are omitted. The list shows a part of the results.
ENDPOINT: normalized growth
When you answer, write just the number.

These solved cases illustrate the format of a correct answer.
OC/C=C/c1ccc(O)c(O)c1    1
CCCc1cc(OC)c2c(c1)OCO2    0.984
Nc1c(Br)cc(Br)cc1CNC1CCC(O)CC1 (stereo not given)    1.02
O=C(O)c1cc(=O)c(O)c2c(O)c(O)c(O)cc2c1    0.934
c1ccc2[nH]c(-c3cscn3)nc2c1    1.01

Q: Which value of normalized growth has been reported for Oc1ccc(/C=C/c2cc(O)cc(O)c2)cc1 in the records?
Result: 0.995

Q: What normalized growth value was documented for this compound, CCOC(=O)CCCCCCCCCCCCC1C=CCC1 (stereo not given) ?
Result: 0.983
